- Test system: Morg morg PR15
- assay_text: Agar dilution antibacterial test (MIC)
- Format: cell-based
Give MIC for every item shown.
I only need the number, in µg/mL, no unit after it.

Give recorded MIC. NC(C(=O)N[C@@H]1C(=O)N2C(C(=O)O)=C(C(F)(F)F)CC[C@H]12)c1cccc(C(F)(F)F)c1 (stereo partly shown) 32

Give recorded MIC. `Nc1nc(C(=NO)C(=O)N[C@@H]2C(=O)N3C(C(=O)O)=C(C(F)(F)F)CC[C@H]23)cs1` 2

Give recorded MIC. CCS(=O)(=O)Nc1cccc(C(N)C(=O)N[C@@H]2C(=O)N3C(C(=O)O)=C(C(F)(F)F)CC[C@H]23)c1 (stereo partly shown) 16

Give recorded MIC. `CON=C(C(=O)N[C@@H]1C(=O)N2C(C(=O)O)=C(C(F)(F)F)CC[C@H]12)c1csc(N)n1` 4

From: patent US5099015A
